Provenance of the data: patent US5053431A

# Test system: [^3 H]TdR incorporation into DNA in HL-60 cells
# measurement description: Inhibition of [3H]TdR incorporation into DNA in HL-60 cells (initial 30 min)
# Assay type: cell-based, human
# test settings: Homo sapiens, 0.5 h; HL-60, initial 30 min exposure; read-out: ID50, M (HL-60 TdR into DNA (B))
Field: label. Allowed values: yes (1) (IC50 < 20 µM) or no (0) (IC50 >= 20 µM).

For orientation, consider the following solved cases.
- chemical structure: "O=C1c2cccc(O)c2C(=O)c2c(O)cc(CN3CCCC3)cc21"
  group: "yes (1)"
- chemical structure: "COc1cc(OC)c2c(c1)C(=O)c1cc(CNCCCl)cc(OC)c1C2=O"
  group: "yes (1)"
- chemical structure: "CCCCNCc1cc(O)c2c(c1)C(=O)c1cccc(O)c1C2=O"
  group: "no (0)"
- chemical structure: "COc1cc(OC)c2c(c1)C(=O)c1cc(CNCCO)cc(OC)c1C2=O"
  group: "no (0)"
- chemical structure: "COc1cccc2c1C(=O)c1c(OC)cc(CNCCCl)cc1C2=O"
  group: "yes (1)"
- chemical structure: "CCN(CC)Cc1cc(O)c2c(c1)C(=O)c1cc(OC)cc(O)c1C2=O"
  group: "no (0)"

Strictly below 20 µM in IC50? "CC(C)NC(=O)OCCN(CCOC(=O)NC(C)C)Cc1cc(O)c2c(c1)C(=O)c1cccc(O)c1C2=O"
yes (1)

Strictly below 20 µM in IC50? "O=C1c2cccc(O)c2C(=O)c2c(O)cc(C(Br)Br)cc21"
no (0)
